// provenance: PubChem BioAssay

Measured z-score accompanies every entry in the list below.
assay: Plasmodium falciparum growth inhibition, primary screen, strain 3D7, DAPI fluorescence, 100 nL (AID 1184);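 further: parasites grown inside human red blood cells in medium with human serum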; settings: P. falciparum 3D7 growth, 3 d, higher = more signal

[
  {
    "MOLECULE": "C=CC[C@@H]1C=C[C@H](ON=C2[C@H]3CCn4c(=O)n(-c5ccccc5)c(=O)n4[C@H]3[C@H](O)[C@@H]3O[C@H]23)[C@@H](CO)O1",
    "z-score": -0.605
  },
  {
    "MOLECULE": "CO[C@H]1COC(=O)[C@@H](C)COC(=O)[C@H](COCc2ccccc2)NC(=O)CC=C[C@H]1C",
    "z-score": -0.386
  },
  {
    "MOLECULE": "CCOC(=O)[C@H](Cc1ccccc1)NC(=O)CCC1CC(OC(=O)NCc2cccc3ccccc23)CC2(CCCC(COC(=O)NCC(c3ccccc3)c3ccccc3)O2)O1 (stereo not given in full)",
    "z-score": -1.83
  },
  {
    "MOLECULE": "CO[C@@H]1C=CCC(=O)N2CCC[C@H]2C(=O)OC[C@@H](C)C(=O)OC[C@H]1C",
    "z-score": 0.432
  },
  {
    "MOLECULE": "COC(=O)CC=C[C@@H](C)[C@@H](C=NO[C@@H](C)c1cc(-c2c(C)cc(C)cc2C)no1)NS(=O)(=O)c1ccc(C)cc1",
    "z-score": -0.842
  },
  {
    "MOLECULE": "COC(=O)CC=C[C@@H](C)[C@@H](C=NOCC[C@@H]1C=C[C@H](OC(C)=O)[C@@H](COC(C)=O)O1)NS(=O)(=O)c1ccc(C)cc1",
    "z-score": 0.0783
  },
  {
    "MOLECULE": "CCOC(=O)[C@H](Cc1ccccc1)NC(=O)CCC1CC(OC(=O)NCc2ccc3c(c2)OCO3)CC2(CCCC(COC(=O)NCCC(C)C)O2)O1 (stereo not given in full)",
    "z-score": -1.2
  },
  {
    "MOLECULE": "CO[C@@H]1COC(=O)CC=C[C@H](C)[C@H](OC)COC(=O)[C@H](C)NC(=O)CC=C[C@H]1C",
    "z-score": -0.382
  },
  {
    "MOLECULE": "CCCCC#C[C@@H]1C=C[C@H](Oc2ccc(C(=O)OC)cc2)[C@@H](COC(=O)OCC)O1",
    "z-score": -0.332
  },
  {
    "MOLECULE": "CC(C)(C)N1C(=O)[C@H]2[C@H]3[C@H](O)[C@H](O)CC(=O)[C@@H]3CC[C@H]2C1=O",
    "z-score": -0.507
  },
  {
    "MOLECULE": "COC(=O)[C@@H]1CC[C@H](C)[C@@H](c2ccc(C)cc2)N1C(=O)c1ccc(C=NOC[C@@H](C)[C@H](OCc2ccccc2)C(C)C)cc1",
    "z-score": -1.87
  },
  {
    "MOLECULE": "COC(=O)CC=C[C@@H](C)[C@@H](C=NO[C@@H](C)c1cn([C@H](CO)Cc2ccccc2)nn1)NS(=O)(=O)c1ccc(C)cc1",
    "z-score": 0.281
  },
  {
    "MOLECULE": "COC(=O)[C@H]1O[C@@H](c2c(OC)c(OC)c(C)c(OC)c2OC)[C@H](C)[C@@H](O)[C@H]1C",
    "z-score": 0.0136
  },
  {
    "MOLECULE": "CO[C@H]1COC(=O)CC=C[C@@H](C)[C@H](OC)COC(=O)[C@@H]2CCCN2C(=O)CC=C[C@@H]1C",
    "z-score": 0.095
  },
  {
    "MOLECULE": "CCOC(=O)[C@H](CC(C)C)NC(=O)CCC1CC(OC(=O)NCc2cccc3ccccc23)CC2(CCCC(COC(=O)NCc3ccncc3)O2)O1 (stereo not given in full)",
    "z-score": -0.652
  }
]

====

experiment: COS7 lysate on small-molecule microarray, probe aHis, 635 nm (AID 1123); details: COS7 cell lysate, fluorescence, higher = more signal;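 further: z-score combines 667nm fluorescence intensity with signal-to-noise per printed compound spot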
# cutoff -0.4 applies to composite z-score; >= gives Condition met, < gives Condition not met

[
  {
    "COMPOUND": "COc1ccc(O[C@H]2C=C[C@@H](c3ccccc3)O[C@@H]2CON=CC[C@@H]2C=C[C@H](OC(C)=O)[C@@H](COC(C)=O)O2)cc1",
    "CLASS": "Condition not met"
  },
  {
    "COMPOUND": "CO[C@@H]1C=CCC(=O)N[C@@H](C)C(=O)OC[C@@H](OC)[C@H](C)CCCC(=O)OC[C@H]1C",
    "CLASS": "Condition not met"
  },
  {
    "COMPOUND": "CCOC(=O)[C@H](CC(C)C)NC(=O)CCC1CC(OC(=O)NCCc2ccc(F)cc2)CC2(CCCC(COC(=O)NCC3CCCCC3)O2)O1 (stereo not given in full)",
    "CLASS": "Condition met"
  },
  {
    "COMPOUND": "CC(C)=CCCC(C)=CCON=C1C[C@@H](O)[C@@H](O)[C@@H]2[C@@H]3C(=O)N(Cc4ccccc4)C(=O)[C@@H]3CC[C@@H]12",
    "CLASS": "Condition met"
  },
  {
    "COMPOUND": "CCOC(=O)[C@H](Cc1ccccc1)NC(=O)CCC1CC(OC(=O)NCCc2ccc(F)cc2)CC2(CCCC(COC(=O)NCCCN3CCCC3=O)O2)O1 (stereo not given in full)",
    "CLASS": "Condition met"
  },
  {
    "COMPOUND": "CCCCC#C[C@@H]1C=C[C@H](Oc2cc(OC)c(OC)c(OC)c2)[C@@H](COC(=O)OCC)O1",
    "CLASS": "Condition not met"
  },
  {
    "COMPOUND": "COC(=O)[C@@H]1CC[C@H](C)[C@@H](c2ccc(C)cc2)N1C(=O)c1ccc(C=NO[C@H](C)c2cn([C@H](CO)Cc3ccccc3)nn2)cc1",
    "CLASS": "Condition met"
  },
  {
    "COMPOUND": "CCOC(=O)CCN1C(=O)[C@H]2[C@H]3[C@H](O)[C@H](O)CC(=NNC(=O)OCc4ccccc4)[C@@H]3CC[C@H]2C1=O",
    "CLASS": "Condition met"
  },
  {
    "COMPOUND": "CO[C@H]1COC(=O)[C@H](C)NC(=O)[C@@H](C)COC(=O)[C@H]2CCCN2C(=O)CC=C[C@H]1C",
    "CLASS": "Condition not met"
  },
  {
    "COMPOUND": "CCCCc1nc2c(c3c1C[C@H](C)OC3)CN(CCOc1ccccc1)CC2",
    "CLASS": "Condition met"
  },
  {
    "COMPOUND": "C#CCCCON=C1C[C@@H](O)[C@@H](O)[C@@H]2[C@@H]3C(=O)N(C(C)(C)C)C(=O)[C@@H]3CC[C@@H]12",
    "CLASS": "Condition met"
  },
  {
    "COMPOUND": "COC(=O)[C@H](C)NC(=O)CCC1CC(OC(=O)NCc2ccc3c(c2)OCO3)CC2(CCCC(COC(=O)NCCc3ccccc3OC)O2)O1 (stereo not given in full)",
    "CLASS": "Condition met"
  },
  {
    "COMPOUND": "COC(=O)[C@@H]1CC[C@H](C)[C@@H](c2ccc(C)cc2)N1C(=O)c1ccc(C=NO[C@@H](C)c2cn([C@H](CO)Cc3ccccc3)nn2)cc1",
    "CLASS": "Condition met"
  },
  {
    "COMPOUND": "CCO[C@H](c1cc(OC)cc([N+](=O)[O-])c1OC)[C@H](C)C=CCC(=O)OC",
    "CLASS": "Condition not met"
  },
  {
    "COMPOUND": "Cc1cc2c(nc1C)CCCN2CC(O)CN1CCCc2nc(C)c(C)cc21",
    "CLASS": "Condition met"
  }
]

====

target: Homeobox protein Hox-A13 (Mus musculus) (UniProt Q62424); assay: inhibitors of HoxA13-DNA binding, primary screen, biochemical, fluorescence polarization, labeled oligonucleotide (AID 1185); conditions: 15 min, higher = more signal, called active from +8 up or from −8 down
Sequence (Q62424 whole entry, looked up): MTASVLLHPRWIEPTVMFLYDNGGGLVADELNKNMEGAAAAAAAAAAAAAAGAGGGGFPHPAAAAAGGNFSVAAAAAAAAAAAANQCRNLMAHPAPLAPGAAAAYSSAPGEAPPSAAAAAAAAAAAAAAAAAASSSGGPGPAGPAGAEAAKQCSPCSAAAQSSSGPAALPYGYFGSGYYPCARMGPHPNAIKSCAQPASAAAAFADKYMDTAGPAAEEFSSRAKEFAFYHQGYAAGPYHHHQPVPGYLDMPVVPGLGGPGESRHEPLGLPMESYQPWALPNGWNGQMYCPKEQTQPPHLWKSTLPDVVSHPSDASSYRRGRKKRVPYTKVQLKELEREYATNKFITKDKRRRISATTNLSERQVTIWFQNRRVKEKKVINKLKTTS
Calls of active or inactive are those of the source.
Measured z-score accompanies every entry in the list below.

[
  {
    "COMPOUND": "COC(=O)[C@H](C)NC(=O)CCC1CC(OC(=O)NCc2ccc3c(c2)OCO3)CC2(CCCC(COC(=O)NCC(c3ccccc3)c3ccccc3)O2)O1 (some centres undefined)",
    "MEASURED ON": "Homeobox protein Hox-A13 (Mus musculus) (UniProt Q62424)",
    "z-score": "-6.84 (inactive)"
  },
  {
    "COMPOUND": "C#CCCCON=C1C[C@@H](O)[C@@H](O)[C@@H]2[C@@H]3C(=O)N(c4ccc(F)cc4F)C(=O)[C@@H]3CC[C@@H]12",
    "MEASURED ON": "Homeobox protein Hox-A13 (Mus musculus) (UniProt Q62424)",
    "z-score": "-3.13 (inactive)"
  },
  {
    "COMPOUND": "C[C@H]1COC(=O)[C@@H]2CCCN2C(=O)[C@@H](C)COC(=O)[C@H](Cc2ccccc2)NC1=O",
    "MEASURED ON": "Homeobox protein Hox-A13 (Mus musculus) (UniProt Q62424)",
    "z-score": "0.163 (inactive)"
  },
  {
    "COMPOUND": "CCOC(=O)[C@H](CC(C)C)NC(=O)CCC1CC(OC(=O)NCc2cccc3ccccc23)CC2(CCCC(COC(=O)NCc3ccncc3)O2)O1 (some centres undefined)",
    "MEASURED ON": "Homeobox protein Hox-A13 (Mus musculus) (UniProt Q62424)",
    "z-score": "-6.29 (inactive)"
  }
]
